Data origin: patent US8598182B2

For each entry below, report its LAPHEG 50 (ug/cm2), percent control value.
# System: Beet Armyworm (Spodoptera exigua)
# assay_info: Insecticidal diet-surface test for beet armyworm
# Type: in vivo
# measurement_context: second-instar beet armyworm, 50 ug/cm2 on diet surface, 5 days after treatment, dead insects of 8
Answers are plain numbers, in %.

[[record]]
molecule = "FC(F)C(F)(F)Oc1ccc(Nc2cc(Cl)nc(N/N=C/c3ccc(OC(F)(F)F)cc3)n2)cc1 [Compound 6]"
number = 100

[[record]]
molecule = "Clc1ccc(/C=N/Nc2nc(Cl)cc(Nc3ccc(Cl)cc3)n2)cc1 [Compound 25]"
number = 75

[[record]]
molecule = "Fc1ccc(/C=N/Nc2nc(Cl)cc(Nc3cccc(Br)c3)n2)cc1C(F)(F)F [Compound 52]"
number = 38


--- query ---
Short answer for Fc1ccc(Nc2nc(N/N=C/c3ccc(OC(F)(F)C(F)F)cc3)nc(Cl)c2Cl)cc1C(F)(F)F [Compound 42] : LAPHEG 50 (ug/cm2), percent control was 38

====

# System: Corn Earworm (Helicoverpa zea)
# assay_info: Insecticidal diet-surface test for corn earworm
# Type: in vivo
# measurement_context: second-instar corn earworm, 50 ug/cm2 on diet surface, 5 days after treatment, dead insects of 8
reported_endpoint: HELIZE 50 (ug/cm2), percent control (%)
Numbers only, in %.

[[record]]
given_smiles = "COc1ccc(/C=N/Nc2nc(Cl)cc(Nc3ccc(F)c(C(F)(F)F)c3)n2)cc1"
measurement_target = "Corn Earworm (Helicoverpa zea)"
number = 38

[[record]]
given_smiles = "Fc1cnc(N/N=C/c2cccc(OC(F)(F)F)c2)nc1Nc1ccc(OC(F)(F)F)cc1"
measurement_target = "Corn Earworm (Helicoverpa zea)"
number = 75

[[record]]
given_smiles = "FC(F)(F)c1ccc(/C=N/Nc2nc(Cl)cc(Nc3ccc(Cl)cc3)n2)cc1"
measurement_target = "Corn Earworm (Helicoverpa zea)"
number = 100

[[record]]
given_smiles = "Fc1ccc(Nc2nc(N/N=C/c3ccc(OC(F)(F)C(F)F)cc3)nc(Cl)c2Cl)cc1C(F)(F)F"
measurement_target = "Corn Earworm (Helicoverpa zea)"
number = 38


I'm hoping you can list HELIZE 50 (ug/cm2), percent control for every compound here, please.
1. Fc1ccc(Nc2cc(Cl)nc(N/N=C/c3ccc(Cl)cc3)n2)cc1C(F)(F)F
2. Fc1ccc(Nc2ncc(F)c(NN=Cc3ccc(OC(F)(F)F)cc3)n2)cc1C(F)(F)F
3. Fc1cnc(N/N=C/c2ccc(OC(F)(F)C(F)F)cc2)nc1Nc1ccc(OC(F)(F)F)cc1
4. CN(/N=C/c1ccc(OC(F)(F)F)cc1)c1nc(Nc2ccc(OC(F)(F)F)cc2)cc(C(F)(F)F)n1
5. FC(F)C(F)(F)Oc1ccc(Nc2cc(Cl)nc(N/N=C/c3ccc4c(c3)OC(F)(F)O4)n2)cc1
6. Clc1cccc(/C=N/Nc2nc(Cl)cc(Nc3cccc(Cl)c3)n2)c1
7. Fc1ccc(Nc2cc(NN=Cc3ccc(OC(F)(F)F)cc3)ncn2)cc1C(F)(F)F

[100, 100, 88, 88, 100, 0, 100]

I'm hoping you can list HELIZE 50 (ug/cm2), percent control for every compound here, please.
1. Fc1ccc(Nc2ccnc(N/N=C/c3ccc(OC(F)(F)F)cc3)n2)cc1C(F)(F)F
2. Clc1ccc(/C=N/Nc2nc(Cl)cc(Nc3ccc(Cl)cc3)n2)cc1
3. Fc1ccc(Nc2nccc(N/N=C/c3ccc(OC(F)(F)C(F)F)cc3)n2)cc1C(F)(F)F
4. Fc1ccc(Nc2cc(Cl)nc(N/N=C/c3ccc(OC(F)(F)C(F)F)cc3)n2)cc1C(F)(F)F

1. 100
2. 100
3. 100
4. 100

Short answer for Fc1ccc(Nc2cc(N/N=C/c3ccc(C(F)(F)F)nc3)ncn2)cc1C(F)(F)F : HELIZE 50 (ug/cm2), percent control was 100
